system: mouse lymphoma cell line; assay: Cell death of lymphoma (survival rate, WST-1); type: cell-based; details: 72 h, IC50=50% survival rate, three days
// reported IC50 for each item listed
Kindly provide the numeric value in µg/mL only, without the unit symbol.

Look over these answered cases.
{"columns": ["compound_structure_string", "quantity_kind", "measured"],
 "data": [
  ["O=c1cc(-c2cc3ccccc3oc2=O)c2ccc(O)c(CN3CCCC3)c2o1", "IC50", 9.77],
  ["COCCN(CCOC)Cc1c(O)ccc2c(-c3cc4ccccc4oc3=O)cc(=O)oc12", "IC50", 1.26],
  ["O=c1cc(-c2cc3ccccc3oc2=O)c2ccc(O)c(CN3CCC(N4CCCCC4)CC3)c2o1", "IC50", 8.25]
]}

Considering "O=c1cc(-c2cc3ccccc3oc2=O)c2ccc(O)c(CN3CCC(CCO)CC3)c2o1" , its IC50 with mouse lymphoma cell line was recorded as 2.15

Considering "CCN(CCN(C)C)Cc1c(O)ccc2c(-c3cc4ccccc4oc3=O)cc(=O)oc12" , its IC50 with mouse lymphoma cell line was recorded as 3.3

Data provenance is patent US20160052918A1.
